EXPERIMENTAL CONDITIONS: in toluene, 328.55 K

>  <INPUT SMILES>
NC(=O)N1c2ccccc2C=Cc2ccccc21

>  <solubility (mole fraction)>
0.004

$$$$

###

EXPERIMENTAL CONDITIONS: in 1,4-dioxane, 302.55 K
PARAMETER: solubility (mole fraction)

>  <INPUT SMILES>
c1ccc2nc3ccccc3nc2c1

>  <PARAMETER>
solubility (mole fraction)

>  <OBSERVED VALUE>
0.031

$$$$

###

EXPERIMENTAL CONDITIONS: in toluene, 335.95 K
PARAMETER: solubility (mole fraction)

>  <INPUT SMILES>
O=C(Oc1ccccc1C(=O)O)c1ccccc1O

>  <OBSERVED VALUE>
0.022

$$$$

###

EXPERIMENTAL CONDITIONS: in 1,4-dioxane, 312.45 K

>  <INPUT SMILES>
c1ccc2nc3ccccc3nc2c1

>  <solubility (mole fraction)>
0.04

$$$$

###

EXPERIMENTAL CONDITIONS: in cyclopentyl methyl ether, 316.75 K
PARAMETER: solubility (mole fraction)

>  <INPUT SMILES>
O=C(O)c1ccccc1O

>  <OBSERVED VALUE>
0.252

$$$$

###

EXPERIMENTAL CONDITIONS: in 1,4-dioxane, 296.95 K
PARAMETER: solubility (mole fraction)

>  <INPUT SMILES>
O=C(O)c1ccc([N+](=O)[O-])cc1

>  <PARAMETER>
solubility (mole fraction)

>  <OBSERVED VALUE>
0.036

$$$$

###

EXPERIMENTAL CONDITIONS: in toluene, 316.75 K

>  <INPUT SMILES>
Nc1ccccc1C(=O)O

>  <solubility (mole fraction)>
0.018

$$$$

###

EXPERIMENTAL CONDITIONS: in cyclopentyl methyl ether, 333.95 K

>  <INPUT SMILES>
O=C(Oc1ccccc1C(=O)O)c1ccccc1O

>  <solubility (mole fraction)>
0.176

$$$$

###

EXPERIMENTAL CONDITIONS: in cyclopentyl methyl ether, 314.25 K
PARAMETER: solubility (mole fraction)

>  <INPUT SMILES>
CC(=O)Oc1ccccc1C(=O)O

>  <OBSERVED VALUE>
0.057

$$$$

###

EXPERIMENTAL CONDITIONS: in cyclopentyl methyl ether, 315.55 K
PARAMETER: solubility (mole fraction)

>  <INPUT SMILES>
Nc1ccccc1C(=O)O

>  <PARAMETER>
solubility (mole fraction)

>  <OBSERVED VALUE>
0.171

$$$$

###

EXPERIMENTAL CONDITIONS: in 1,4-dioxane, 336.65 K
PARAMETER: solubility (mole fraction)

>  <INPUT SMILES>
CC(=O)Nc1ccc(O)cc1

>  <PARAMETER>
solubility (mole fraction)

>  <OBSERVED VALUE>
0.042

$$$$

###

EXPERIMENTAL CONDITIONS: in cyclopentyl methyl ether, 313.05 K

>  <INPUT SMILES>
CC(=O)Oc1ccccc1C(=O)O

>  <solubility (mole fraction)>
0.055

$$$$

###

EXPERIMENTAL CONDITIONS: in toluene, 329.05 K

>  <INPUT SMILES>
O=C(O)c1ccccc1O

>  <solubility (mole fraction)>
0.021

$$$$
